Data provenance is PubChem BioAssay (NCI).

tested on: SK-MEL-2 melanoma; assay: NCI tumour cell line growth inhibition, 48 h
MEASURED ATTRIBUTE: TGI (µM)
Numeric only. Scale: µM

Some solved cases for reference:
{"MOLECULE": "CC1=C(C(=O)Nc2ccc(F)c(Cl)c2)C(c2cccc(Cl)c2)NC(=O)N1 (stereo not given)", "TGI / µM": 30.5}
{"MOLECULE": "CCC1OC2C(CC=C(C)C)=C3OC(C)(O)C(C)(CC)C(O)C3=C3OC(=O)C=C1C32 (stereo not given)", "TGI / µM": 84.5}

Give reported TGI for CCCCCCCCCCCCCC(=O)OCC1OC(OC)C(NC(=O)N(CCCl)N=O)C(O)C1O (stereo not given) (SK-MEL-2 melanoma)
71.2

====

test system: K-562 leukemia; assay: NCI tumour cell line growth inhibition, 48 h
Measured TGI, listed per entry for reference.

{"MOLECULE": "CC(=O)c1ccc2c(c1)CC1(C2)Cc2cc3c(cc2C1)C(=O)CC3 (stereo not given)", "SYSTEM UNDER TEST": "K-562 leukemia", "RESULT": "2.32 µM"}

Quote TGI reported for "CC(C)(C)c1ccc(-c2nnc(SCc3ccc(Cl)cc3)n2-c2cccc(C(F)(F)F)c2)cc1" please.
> 100 µM

Quote TGI reported for "COc1ccc2c(c1)CCC(CN1CCN(CCOC(c3ccc(F)cc3)c3ccc(F)cc3)CC1)=C2" please.
> 100 µM

Quote TGI reported for COC(=O)CP1(=O)OC2C(C3CCC2(C)C3(C)C)N1c1cc(C(F)(F)F)cc(C(F)(F)F)c1 (stereo not given) please.
68.3 µM

====

test system: PC-3 prostate; test: NCI tumour cell line growth inhibition, 48 h
Where a SMILES comes first, the peptide text is derived from it. The star is where a group is joined. Boc = CC(C)(C)OC(=O)*; OBn = c1ccc(CO*)cc1; Bn = c1ccc(C*)cc1
Measured TGI, listed per entry for reference.

Some solved cases for reference:
{"COMPOUND": "CC(O)CN(CCN(CC(C)O)CC(C)O)CC(C)O.O=[N+]([O-])O.[Cu+2] (centres undefined)", "TGI": "> 100 µM"}
{"COMPOUND": "CC(C)C[C@H](NC(=O)[C@@H](Cc1cccc2ccccc12)NC(=O)N1CCOCC1)B(O)O", "TGI": "24.9 µM"}
{"COMPOUND": "Cc1c2c(nn1-c1ccc(S/N=C3\\SCC(=O)CN3c3ccccc3)cc1)-c1ccccc1CC2", "TGI": "> 50 µM"}
{"COMPOUND": "COc1cc(/C=C\\c2ccc(SC)cc2)cc(OC)c1OC", "TGI": "> 100 µM"}
{"COMPOUND": "CC(C)CC(NC(=O)C(Cc1ccccc1)NC(=O)C(COCc1ccccc1)NC(=O)OC(C)(C)C)C(=O)OCc1ccccc1 (stereo not drawn) (Boc-Ser(Bn)-Phe-Leu-OBn; configuration not given here)", "TGI": "57.6 µM"}

Quote TGI reported for CCOc1ccc(N=NC2C(=O)N(C(=O)CC(=O)Nc3ccc(Cl)cc3)N=C2C)cc1 (centres undefined) please.
> 100 µM

Quote TGI reported for "Fc1ccc(C(=NCc2ccccc2)N2CCOCC2)cc1" please.
> 100 µM

Quote TGI reported for COc1ccc(C2CC(c3cc(OC)c(OC)c(OC)c3)=NN2)cc1 (centres undefined) please.
> 100 µM

Quote TGI reported for "CN(C)/[N+]([O-])=N/Oc1cc(Nc2ccc(C(=O)O)cc2)c([N+](=O)[O-])cc1[N+](=O)[O-]" please.
53.1 µM

Quote TGI reported for "CCc1nnc2sc(-c3ccc(-c4ccc(Cl)cc4Cl)o3)nn12" please.
> 100 µM

Quote TGI reported for "c1ccc(/C(=N/Nc2cnccn2)c2ncccn2)cc1" please.
> 100 µM

Quote TGI reported for "Cn1c2ccccc2n2c(=O)c(-c3ccc(O)cc3)nnc12" please.
> 100 µM
